Target: CD3ε homodimer protein (human, UniProt P07766 23-126, limits assumed)
Sequence (P07766 23-126 limits assumed): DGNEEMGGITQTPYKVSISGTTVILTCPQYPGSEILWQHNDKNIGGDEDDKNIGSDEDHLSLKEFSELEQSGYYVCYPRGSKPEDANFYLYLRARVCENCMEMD
Assay: SPR, immobilized CD3ε homodimer;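 further: biacore T200 surface plasmon resonance at 25 °C, antibody variants flowed as analytes over amine-coupled CD3ε homodimer on a CM4 chip, variant binding amount divided by that of GLS3000 antibody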
Form field: ratio of amounts bound (vs GLS3000) (one value per entry).
Simply state the number, no unit and no words.

Challenge: Given the binder GLS3000 G89K (antibody, name in Kabat numbering, V domains shown, one-arm format as m2) VH: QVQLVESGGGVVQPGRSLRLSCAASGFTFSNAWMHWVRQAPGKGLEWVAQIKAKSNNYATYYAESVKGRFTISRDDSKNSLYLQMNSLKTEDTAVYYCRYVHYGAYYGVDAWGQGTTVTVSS VL: DIVMTQSPLSLPVTPGEPASISCRSSQSLVHSNRNTYLHWYQQKPGQAPRLLIYKVSNRFSGVPDRFSGSGSGTDFTLKISRVEAEDVGVYYCKQGTQVPYTFGQGTKLEIK , write its reported ratio of amounts bound (vs GLS3000).
Response given: 0.4

Proceed to the following item.
Challenge: Given the binder GLS3000 N28H (antibody, name in Kabat numbering, V domains shown, one-arm format as m2) VH: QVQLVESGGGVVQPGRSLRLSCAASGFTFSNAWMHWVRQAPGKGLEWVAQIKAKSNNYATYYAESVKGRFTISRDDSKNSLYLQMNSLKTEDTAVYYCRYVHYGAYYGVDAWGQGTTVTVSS VL: DIVMTQSPLSLPVTPGEPASISCRSSQSLVHSHRNTYLHWYQQKPGQAPRLLIYKVSNRFSGVPDRFSGSGSGTDFTLKISRVEAEDVGVYYCGQGTQVPYTFGQGTKLEIK , write its reported ratio of amounts bound (vs GLS3000).
Response given: 0.42
